The measurements presented in this section are drawn from ChEMBL document CHEMBL3507680.

Experiment: Human HepG2 cell viability assay in 384 well format
Format: toxicity, cell-based
Parameters: dose 125 nL, time 70.5 hour; concentration not given beside the values
Details: HepG2 cells, read-out: Inhibition
measured-property: cytotoxicity at 70.5 h (%)
Response body: numeric value in %, unit text excluded.

{"compound": "COCCCNC(=O)CN(C)C(=O)CN(C)c1ccc(C#N)cn1", "experimental-value": -7.44}

Exercise: Consider the compound `CSCCC(=O)NS(=O)(=O)c1ccc2c(c1)OCCO2` and give its recorded cytotoxicity at 70.5 h.
Key: -7.91

Exercise: Determine from records and report cytotoxicity at 70.5 h for CC(Cn1cccn1)NC(=O)NCc1ccnc(OC2CCCC2)c1 (stereo unspecified)
Key: -8.79

Exercise: # return recorded cytotoxicity at 70.5 h for entry `CN1CCN(Cc2cnc3n2CCN(C(=O)c2cscn2)C3)CC1`
Key: -3

Exercise: State, in one line, measured cytotoxicity at 70.5 h of CC(CNC(=O)Nc1ccc(N(C)C)nc1)Cn1cccn1 (stereo unspecified)
Key: -7.16

Exercise: Recall and state the measured cytotoxicity at 70.5 h for `Cc1ncc(CC(=O)N2CCC3(CCC(=O)N(CCO)C3)CC2)c(=O)[nH]1` .
Key: -13.5
